- Procedure Summary: Partition coefficient (logD2.0)
- Format: physicochemical
- Measurement Context: octanol/water, pH 2; read-out: logD
Field: label. Allowed values: Met (logD < 2) or Not met (logD >= 2).

Compound	Assigned Category
O=Cc1ccc(C(=O)O)cc1	Met
Nc1ccc(C(=O)O)cc1	Met
CCCCc1ccc(C(=O)O)cc1	Not met
CN(C)c1cccc(C(=O)O)c1	Met
Cc1ccccc1C(=O)O [TOLUIC ACID]	Not met
O=C(O)c1ccccc1[N+](=O)[O-]	Met

====

- Species: Rattus norvegicus
- Procedure Summary: Concentration of the drug in the kidney of rat
- Format: ADME, organism-based
- Measurement Context: in vivo
Answer Not satisfied if Log M is under 0.9, and Satisfied if it is 0.9 or more.

Compound	Assigned Category
CN(C)c1cccc(C(=O)O)c1	Not satisfied
CC(=O)Nc1cccc(C(=O)O)c1	Not satisfied
Nc1ccc(C(=O)O)cc1	Not satisfied
O=C(O)c1ccc([N+](=O)[O-])cc1 [4-NITROBENZOIC ACID]	Satisfied
O=C(O)c1cccc([N+](=O)[O-])c1	Satisfied
N#Cc1cccc(C(=O)O)c1	Satisfied
O=C(O)c1ccccc1 [BENZOIC ACID]	Satisfied
N#Cc1ccc(C(=O)O)cc1	Satisfied

====

Below: a set of entries, each annotated with reported logD.
- Procedure Summary: Partition coefficient (logD2.0)
- Format: physicochemical
- Measurement Context: octanol/water, pH 2; read-out: logD

Sample Smiles	logD
Nc1cccc(C(=O)O)c1	-0.79
CC(=O)Nc1ccc(C(=O)O)cc1	1.27
O=C(O)c1ccccc1Br	2.14
O=C(O)c1cc(Cl)ccc1Cl	2.82
O=C(O)c1cccc(C(F)(F)F)c1	2.99
Nc1ccccc1C(=O)O	0.51

====

- Procedure Summary: Partition coefficient (logD2.0)
- Format: physicochemical
- Measurement Context: octanol/water, pH 2; read-out: logD

Molecule	logD
O=C(O)c1c(Cl)cccc1Cl	1.8
N#Cc1ccc(C(=O)O)cc1	1.63
NS(=O)(=O)c1ccc(C(=O)O)cc1 [CARZENIDE]	0.55
COc1ccc(C(=O)O)cc1 [p-ANISIC ACID]	1.95
CCCc1ccc(C(=O)O)cc1	3.42
O=C(O)c1ccc(F)cc1	2.05
O=C(O)c1ccc(O)cc1 [PARABEN]	1.41
CC(=O)Nc1cccc(C(=O)O)c1	1.32
N#Cc1cccc(C(=O)O)c1	1.65
O=C(O)c1ccc(C(F)(F)F)cc1	3.18
COc1cccc(C(=O)O)c1	1.98
CCc1ccc(C(=O)O)cc1	2.89

====

Catalogue of compounds with associated Log 1/C
- Procedure Summary: log (1/C') was determined
- Format: ADME

Sample Smiles	Log 1/C
O=C(O)c1ccc(I)cc1	0.99
O=C(O)c1ccccc1Cl	2.15
O=C(O)c1cccc([N+](=O)[O-])c1	0.22
Nc1ccc(C(=O)O)cc1	-1.67
O=C(O)c1ccccc1[N+](=O)[O-]	1.54
O=C(O)c1ccc(Cl)c(Cl)c1	2.47
O=C(O)c1ccccc1I	1.19
Nc1cccc(C(=O)O)c1	-1
O=C(O)c1ccc(Br)cc1	1.19
